Reference for the values: patent EP4745135A1

- Assay system: human Cereblon WT GST-tagged protein (Homo sapiens, UniProt Q96SW2)
- Construct: purchased CISBIO 64BDCRBNPEH
- Sequence (Q96SW2 whole entry): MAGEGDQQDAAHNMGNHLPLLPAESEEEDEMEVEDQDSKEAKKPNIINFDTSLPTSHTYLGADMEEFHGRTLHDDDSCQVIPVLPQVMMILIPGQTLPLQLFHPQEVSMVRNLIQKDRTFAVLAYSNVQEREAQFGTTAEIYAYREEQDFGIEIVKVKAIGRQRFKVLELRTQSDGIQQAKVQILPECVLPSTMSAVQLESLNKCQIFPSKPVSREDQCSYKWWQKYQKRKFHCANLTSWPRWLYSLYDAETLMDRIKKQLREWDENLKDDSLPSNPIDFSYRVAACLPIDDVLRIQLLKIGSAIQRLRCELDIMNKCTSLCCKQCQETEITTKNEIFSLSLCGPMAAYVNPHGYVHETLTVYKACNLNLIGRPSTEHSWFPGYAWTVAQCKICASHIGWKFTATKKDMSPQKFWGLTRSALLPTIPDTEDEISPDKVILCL
- Protocol notes: CRBN-binding affinity, HTRF (CEREBLON BINDING kit)
- Condition notes: read-out: Inhibition Rate at 2 µM (%)
Quantity name: inhibition at 2 µM

The cases that follow already have their inhibition at 2 µM on record.
I would be grateful if you could share the reported inhibition at 2 µM for O=C1CCC(N2Cc3c(CN4CCN(C(c5ccccc5)c5ccccn5)CC4)cccc3C2=S)C(=O)N1 (stereo not shown) . 80 to 100%

Please report the recorded inhibition at 2 µM for Cc1cc(N2CCN(Cc3ccc4c(c3)CN(C3CCC(=O)NC3=O)C4=S)CC2)cs1 (stereo not shown) . 80 to 100%

inhibition at 2 µM for O=C1CCC(N2Cc3cc(CN4CCN(c5cc(Cl)cc(Cl)c5)CC4)ccc3C2=S)C(=O)N1 (stereo not shown) ? 80 to 100%

Need inhibition at 2 µM, item O=C1CCC(N2Cc3c(CN4CCN(CC5=C(c6ccc(F)cc6)CCCC5)CC4)cccc3C2=S)C(=O)N1 (stereo not shown) 60 to 80%

// lookup inhibition at 2 µM for Cc1ccc(C2=CCN(Cc3cccc4c3CN(C3CCC(=O)NC3=O)C4=S)CC2)s1 (stereo not shown) 80 to 100%

What value of inhibition at 2 µM has been reported for the following compound? O=C1CCC(N2Cc3c(CN4C[C@H]5C[C@@H]4CN5c4cccc(Cl)c4Cl)cccc3C2=S)C(=O)N1 (stereo in doubt) 60 to 80%

For the compound shown here, O=C1CCC(N2Cc3c(CN4CCN(c5ncncn5)CC4)cccc3C2=S)C(=O)N1 (stereo not shown) , give the reported inhibition at 2 µM. 80 to 100%

Request the reported inhibition at 2 µM associated with O=C1CCC(N2Cc3cc(CN4CCN(c5cccc(F)c5F)CC4)ccc3C2=S)C(=O)N1 (stereo not shown) 80 to 100%

Given the compound O=C1CCC(N2Cc3c(CN4CCN(c5ccc(C(F)(F)F)cc5)CC4)cccc3C2=S)C(=O)N1 (stereo not shown) , what is its reported inhibition at 2 µM? 60 to 80%

So what does the record say about inhibition at 2 µM for O=C1CCC(N2Cc3cc(CN4CCC(c5cccc(F)c5F)CC4)ccc3C2=S)C(=O)N1 (stereo not shown) ? 80 to 100%

---
I am curious: what inhibition at 2 µM value has been reported for O=C1CCC(N2Cc3c(CN4CCN(C(c5ccccn5)c5ccccn5)CC4)cccc3C2=S)C(=O)N1 (stereo not shown) ? 80 to 100%

Entry O=C1CCC(N2Cc3cc(CN4CCN(c5ncccc5F)CC4)ccc3C2=S)C(=O)N1 (stereo not shown) has what inhibition at 2 µM? 80 to 100%

Value lookup for inhibition at 2 µM; key = O=C1CCC(N2Cc3cc(CN4C5CCC4CN(c4cccc(Cl)c4Cl)C5)ccc3C2=S)C(=O)N1 (stereo not shown) 80 to 100%

What measured inhibition at 2 µM goes with COc1ccccc1N1CCN(Cc2cccc3c2CN(C2CCC(=O)NC2=O)C3=S)CC1 (stereo not shown) ? 80 to 100%

Please report the recorded inhibition at 2 µM for Cc1nc(C2=CCN(Cc3ccc4c(c3)CN(C3CCC(=O)NC3=O)C4=S)CC2)c2c(-c3ccccc3)csc2n1 (stereo not shown) . 80 to 100%

What does the record list as inhibition at 2 µM for O=C1CCC(N2Cc3c(CN4CCN(c5ncc6ccsc6n5)CC4)cccc3C2=S)C(=O)N1 (stereo not shown) ? 80 to 100%

Please look up its inhibition at 2 µM: O=C1CCC(N2Cc3c(CN4CCC(c5noc6ccccc56)CC4)cccc3C2=S)C(=O)N1 (stereo not shown) 80 to 100%
